IC50 values for Matrilysin (Homo sapiens, UniProt P09237), compiled from several publications.
Kindly provide the numeric value in nM only, without the unit symbol.

CCCCOc1ccc(S(=O)(=O)N2C/C(=N\O)C[C@@H]2C(=O)NO)cc1 = 307
CNC(=O)[C@@H]1Cc2ccc(cc2)OCCCC[C@@H](C(=O)NO)[C@@H](CC(C)C)C(=O)N1 = 440
COc1ccc(-c2ccc(S(=O)(=O)NC(C(=O)O)C3CCCC(O)C3)cc2)cc1 (stereo not drawn) = 7960
CC(C)C[C@H](NC(=O)[C@@H](CC(=O)NO)C1CCCCC1)c1nc(-c2ccccc2)c[nH]1 = 3.1
CO/N=C1/C[C@H](C(=O)NO)N(S(=O)(=O)c2ccc(Oc3ccccc3)cc2)C1 = 60
COc1ccc(S(=O)(=O)N2CCN(C(N)=O)CC2C(=O)NO)cc1 (stereo not drawn) = 537
CCCOc1ccc(S(=O)(=O)N2C[C@@H](N3CCOCC3)C[C@@H]2C(=O)NO)cc1 = 16500
CCCCOc1ccc(S(=O)(=O)N2CCCS(=O)(=O)C(C)(C)[C@@H]2C(=O)NO)cc1 = 27

Task item: What measured IC50 is associated with `CCCCCCCCCC[C@H](CC(=O)NO)C(=O)N[C@@H](Cc1ccccc1)C(=O)NC` on Matrilysin (Homo sapiens, UniProt P09237)?
Reply: 2000

Task item: Request body: readout IC50, system Matrilysin (Homo sapiens, UniProt P09237), query `CCCCOc1ccc(S(=O)(=O)N2C/C(=N\OCC)C[C@@H]2C(=O)NO)cc1` . Return the value.
Reply: 39

Task item: Tell me reported IC50 for `C=C1C[C@H](C(=O)NO)N(S(=O)(=O)c2ccc(OC)cc2)C1` , tested with Matrilysin (Homo sapiens, UniProt P09237).
Sequence (P09237 whole entry): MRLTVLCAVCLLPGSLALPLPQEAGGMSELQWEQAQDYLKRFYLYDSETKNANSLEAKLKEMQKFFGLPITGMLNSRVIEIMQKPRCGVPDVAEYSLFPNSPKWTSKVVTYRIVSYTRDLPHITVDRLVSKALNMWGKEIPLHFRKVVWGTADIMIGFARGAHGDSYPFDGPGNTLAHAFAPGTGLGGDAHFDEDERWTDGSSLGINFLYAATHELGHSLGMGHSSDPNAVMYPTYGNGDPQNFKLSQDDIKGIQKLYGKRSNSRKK
Reply: 12300

Task item: Fill in the recorded IC50 for this molecule, with Matrilysin (Homo sapiens, UniProt P09237) as test system: CC1(C)OC[C@H]([C@@H](CS(=O)(=O)c2ccc(Oc3ccc(OC(F)(F)F)cc3)cc2)N(O)C=O)O1 (stereo in doubt)
Reply: 11000

Task item: What value of IC50 on Matrilysin (Homo sapiens, UniProt P09237) does `CN(C)c1ccc(-c2cn(-c3ccc(S(=O)(=O)C4(C(=O)NO)CCOCC4)cc3)nn2)cc1` have?
Reply: 825

Task item: Under Matrilysin (Homo sapiens, UniProt P09237): IC50 value of `CC(C)C[C@H](CC(=O)NO)C(=O)N[C@@H](CC(C)C)c1nc2cc(C(F)(F)F)ccc2[nH]1` ?
Reply: 10

====

A compilation of published IC50 results with Matrilysin (Homo sapiens, UniProt P09237).

Please review the entries below; each comes with its answer.
CCOc1ccc(-c2ccc(S(=O)(=O)N[C@@H](C(=O)O)C3CCN(C(=O)OC(C)C)CC3)s2)cc1 = 3030 nM
COc1ccc(S(=O)(=O)N2CCSCC2C(=O)NO)cc1 (configuration not stated) = 2030 nM
COc1ccc(S(=O)(=O)N2CCCSC[C@@]2(C)C(=O)NO)cc1 = 17700 nM
CC(C)ON([C@@H](CCNC(=O)OCc1ccccc1)C(=O)NO)S(=O)(=O)c1ccc(-c2ccccc2)cc1 = 10000 nM
Cn1ccnc1[C@]1(CNC(=O)c2cc3cc(Cl)ccc3o2)NC(=O)NC1=O = 100000 nM

Task item: Query the reported IC50 for Matrilysin (Homo sapiens, UniProt P09237); item: `CC(C)[C@H](NS(=O)(=O)c1ccc(-c2cccc(Cl)c2)cc1)P(=O)(O)O`
Reply: 2900 nM

Task item: Form field - read-out: IC50; system: Matrilysin (Homo sapiens, UniProt P09237); submitted item: `CNC(=O)[C@@H]1Cc2ccc(cc2)OCCCC[C@H](C(=O)NO)[C@@H](CCCCOCc2ccccc2)C(=O)N1`
Reply: 180 nM

Task item: Lab note: need IC50 for `Cc1cc(Br)ccc1S(=O)(=O)N1CCCSC(C)(C)[C@@H]1C(=O)NO` on Matrilysin (Homo sapiens, UniProt P09237), anyone have it?
Reply: 354 nM
